- EXPERIMENT_NOTES: soluble on expression in E. coli; label from the status in PepcDB or PDB records
MEASURED_PROPERTY: soluble on expression in E. coli

- RESIDUE_STRING: "MGSDKIHHHHHHMNALTWLTKHSQAVIFRKKLAGLTACSQMIELSTPLNDGQRKFIFRQQSARATLLAINYAQEAYILQHLDALPFTPKVYYQTANSSLLTWLEGKPATAFDPDLLEQLALQLATLHAYPLPKQRTILQLAERCQLLWDRLTPSQQHQLNFCPPFKKIEPLQLAICHHDLHLANLIQHQQQLFIIDWEYSAISDPVLEIALFFQANTLNSVQKQFFLTTYLSKINLNEPLFKQKMAEYTPAIQQLSQLWYALSEAIT"
  RECORDED_VALUE: "not soluble"
- RESIDUE_STRING: "MLKGKYTKIEKVNGVEREYLITDKYGITIGRIFIVDLNKDNRFCMFRMKIYKQGKSINTYIKEILSVFMEFLFKSNDINKVNIIVDEEVSTQPFVELGFAFEGIINKSIIEKNVLKDEFLFGMDYKNYNSDRINVFKLYGKSITLKVLTPEDAENMLQYYIKNKEHLKPFEPEREESFYTFEAQKQMLIENYKQFINGEGTNFGIYKDAKLIGKIQISGTIYGVFKSAIIGYSIDKDYQGKGYMKDALRVAEAYAFNVMNLHRIEASALVDNLRSQNVLIGCGFEKLGINKNYLFINGRWQDHITFYKTNNN"
  RECORDED_VALUE: "not soluble"
- RESIDUE_STRING: "MTETEQTTAPIYPLKRNWTWWYLNDERNKSWEDRLKKVYTFNTVSEFWALYDAIRPPSGLNALCDYNVFRDDIQPMWEVPENSNGGRWLIVIDKGKTPEMVDAIWLEILMALVGEQFGKDMESICGLVCNVRGKGSKISVWTKDCNDDETNMRIGVVLKEKLMAASKDHSKPLFDVIRYEDHESCQKKTSSVVKAKLSLHSSDAPVAEKSAV"
  RECORDED_VALUE: "not soluble"

###

- EXPERIMENT_NOTES: soluble on expression in E. coli; label from the status in PepcDB or PDB records
MEASURED_PROPERTY: soluble on expression in E. coli

These solved cases illustrate the format of a correct answer.
- RESIDUE_STRING: "MGSDKIHHHHHHADILNCILPAEMLTGTDIDYNRPYDKSLNAYPIYIEVNNGTDLTRLAPTFELTEGASIEPANGSTQNFTNPVRYTVTSEDKNWHRTYAINIHYPETKSIPTVFNFENVKTVPYNKNEYYVLYEAASGYSTLTWSSGNQGFALTGSGYTPNDFPTSISPNGRTGNCLQLITRKTGSLGTLVGMPIAAGNLFIGSFDIGSAMSDALSATKFGTTFYYEPIKLVGYYKYKAGPEFYENGESTNRKDVFNIYALFYEKTKDVQMLDGHIAKNNYEHENMVAAAVITDTHETSEWTRFELDFNYEHYGKTIDPQKLANGGYNVSIVLSASKDGDVFQGAPGSTLLIDDLELVCKQPLR"
  soluble on expression in E. coli: "not soluble"
- RESIDUE_STRING: "MGSDKIHHHHHHMELCTTICVDLAKQVFQLAGEDATGRVIYEDRIKSRQAFHDFLLRLPTTVAVLMECGPGAQAWARLLQAKGNPVRILPAQRVAEHRSGAKNDRNDCYAILRAGRDTSIASIPIKSTTALAIQALHRIRRGNIKRHTALGNQIRGLLLEHGVSMPQGDAAINKHVPRALEDASLPLPDLLRELLDELLMDWLSLGERITALSRRLEATAQEDKVAQRLITIRGVGPIIATAIVAKQTDPSRFASGRMYSAFFGIVPDQHSSGNKIRLGKMSKRGDGYIRSLMIQGAHSVLSQLRPDSDQPDDRRLLRWLSRLGRKEAAIRLANRNLRIIWALLQSDQVYQRKPNEKPEAAMSL"
  soluble on expression in E. coli: "not soluble"
- RESIDUE_STRING: "GPGSMAEEKIKIIVVGSVKSGKTTITNFLSGTRETATSKYYETNPLRIVETEIELDSMNFTDRRVVFSGGDAKTKRVLVQIWDLSGNSKHQAGWPAVANKADGIIFVFNPALKNGEKELSLWHKTFAVNQSELDALGNFAVRVPDKHCLVFAHHSTPPSNVAGEGLPSMPKGLEKIKVLETSLDYHSDNFKAAFDKLIESIVVARMEAEEDEVLQREGRMHF"
  soluble on expression in E. coli: "soluble"
- RESIDUE_STRING: "MAHHHHHHMQEVMQKALAGRYDPLPPTISPEMTEVVTSLLCGDPHARPSSSKLLNMPICKLFVSGLLEIVQTQPSFAGPLRDTISTHIQSVKQSLKEERRVTVRQMEESQSAAAASTTILEGATPMGSVGDLTLYEGIVKKQSGDLAWKRRYLCIRGALEEGERLDVGRMPKFKSLDLVLAVSKETMRQQCITTPFSELEDVFPVASKYTGSNAQHVFAVAFKTGRRLLFQARGDPERDAWMQKIQQTLGIDEAD"
  soluble on expression in E. coli: "not soluble"

query: Give soluble on expression in E. coli for PNKFCPGCGHGIVNRIIAEVIEEHGYEKNHVLTLGVGCVCNMNFSWNGDKMQTAHGRASSTAIGVKVALPDTLVMTYQGDGDAYVIGLSETLNTAYRNHNVTVFVINNNNFAMTGGQMSWTTMPGQVTTTSVNGRDIKTTGSPLKVPEMVANFFDVAYVARGSVHSPKEIINLKKYIKNAIEAQLNGEGYSLVEILAPCPTNWGVSLEKSIKWMEEEIVPYYALGEFKQRDG
result: not soluble

query: Give soluble on expression in E. coli for MAHHHHHHMILPRYAYAHADMDQKQMQKLLLMGPGGAGKTCMRSIIFDNYLPRDALRLGITISLDQSQVHILRNLFLNLWDCGGQHRYVTEYLNRQKEYIFRYVGVMLFVFDINSMCRDSHGGIGGLGGVGGESSSATTDWKLPEMLEYFREAMRFIRQYSPKAKVFVLLHKIDLIHKDIREEIFQARKQEILNCIDSDNGMNIEFFGTSIWSDSLYLAYSSVVRSLVPHRDVLVEMMRGIAMACDAAEVALYERSTFLCLTHINRKAAADGSKALFLQGDGELRTTEVSETVKHFKLSCMNNTTSLGGLSITTETFTALLCPFTECTHVLVVSVDPKVNVELHRLNVNAARRRFEQFLDSDEPTACAMREVL
result: not soluble

query: Give soluble on expression in E. coli for METIWIPHLHTALAYMHERFLELFILPDSCPSKKLEELQQKEGN
result: not soluble

query: Give soluble on expression in E. coli for MGIRPSADEQDQCFMTRITIVTDAWHPQVNGVVRSIENTNTELARLGVDVRMVTPQSFYSIPCPTYPEIRLSVAGYRRVAVEIEKSQPSFVHIATEGPLGFMARRWCVKNHMRFSTSYHTRFPEYVAARFPVPESWLYAFVRWFHNGGNTCMVATPSLETELEARGVRNLKRWSRGIDAELFHPRTKTKLPFDLPRPIFMTVGRVAVEKNLPEFLDLDLPGSKIVIGDGPARYELQEKYPDVLFTGIKTGEELADAYAQADVFVFPSKTDTFGNTILEALASGVPVAAFPVTGPIDILGGNPAAGALDNNLRDACLAALHCSPQAALALSKSYSWEKASRQFLDNVIHAAGKSLPLLSRSRLAAAALEHHHHHH
result: not soluble

query: Give soluble on expression in E. coli for LKFGTSWKEAYGTGWLIDWKDVKQDNKFTAYLATNLHVADSLRNKDDYKPYNKDGNQKEFLPGDITTEFSLGKYIDA
result: not soluble

query: Give soluble on expression in E. coli for MAEQQQEQQIRVRIPRKEENEILGIIEQMLGASRVRVRCLDGKTRLGRIPGRLKNRIWVREGDVVIVKPWEVQGDQKCDIIWRYTKTQVEWLKRKGYLDELL
result: soluble

query: Give soluble on expression in E. coli for MRQLLLISDLDNTWVGDQQALEHLQEYLGDRRGNFYLAYATGRSYHSARELQKQVGLMEPDYWLTAVGSEIYHPEGLDQHWADYLSEHWQRDILQAIADGFEALKPQSPLEQNPWKISYHLDPQACPTVIDQLTEMLKETGIPVQVIFSSGKDVDLLPQRSNKGNATQYLQQHLAMEPSQTLVCGDSGNDIGLFETSARGVIVRNAQPELLHWYDQWGDSRHYRAQSSHAGAILEAIAHFDFLS
result: soluble

query: Give soluble on expression in E. coli for MVLILNGPNLNLLGRREPEVYGRTTLEELEALCEAWGAELGLGVVFRQTNYEGQLIEWVQQAHQEGFLAIVLNPGALTHYSYALLDAIRAQPLPVVEVHLTNLHAREEFRRHSVTAPACRGIVSGFGPLSYKLALVYLAETLEVGGEGF
result: soluble
